Sourced from the supplement of paper PMC10567573

In this section, each of the variants is paired with its reported protein stability index.
B1: C1orf137 (parent)
chain: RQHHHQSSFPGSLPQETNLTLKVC

- Variants of: B1
- EXPERIMENT_SUMMARY: protein stability index of a GFP-peptide fusion (GPS, HEK-293T) (PSI 1-6); higher = more stable;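 note: lentivirally expressed fusions sorted by FACS into six bins by GFP to DsRed ratio, PSI derived from sequencing read proportions per bin multiplied by bin number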
- CONDITION_INFO: c terminus: a fixed tail appended
# output: bare number, no unit

Worked set:
SEQUENCE_DATA	protein stability index
RQHHHQSSFLGSLPQETNLTLKVC [P10L]	2.25
RQHHHQSSFPGSLPQETNLTLKWC [V23W]	2.86
RQHHHQSFFPGSLPQETNLTLKVC [S8F]	1.84
RQHHHQSSFPGQLPQETNLTLKVC [S12Q]	2.55
RQHHHQSSFPGSLPQETCLTLKVC [N18C]	1.96

Looking up RQHHHQSSFPGSLPQETNLTTKVC [L21T] , I found its protein stability index recorded as 4.54

// field: protein stability index; key: RQKHHQSSFPGSLPQETNLTLKVC [H3K] ; value = 3.31
